test: Ex vivo biodistribution in PC-3 tumor-bearing mice; conditions: mouse, lungs, Uptake in lungs, 24 h post-injection
Numbered stars: 1 amine (or outer) side, 2 acyl side, 3 side chain; on linkers, the order of the positions; unused ones are H or OH. Square brackets hold non-standard residues; d marks the D form. Peptide text beside a SMILES is read from it. * marks the point of attachment. DOTA = O=C(O)CN1CCN(CC(=O)O)CCN(CC(=O)*)CCN(CC(=O)O)CC1; NMeH = CN[C@@H](Cc1c[nH]cn1)C(=O)O; X1 = O=C(CN1CCC(N[*:1])CC1)[*:2]; Tle = CC(C)(C)[C@H](N)C(=O)O; Thz = O=C(O)[C@@H]1CSCN1
observedProperty: tissue uptake at 24 h (%ID/g)
The reply should contain only the number, in %ID/g.

CC(C)C[C@@H](CN1CSC[C@H]1C(N)=O)NC(=O)[C@H](Cc1cnc[nH]1)NC(=O)CN(C)C(=O)[C@@H](NC(=O)[C@H](C)NC(=O)[C@H](Cc1c[nH]c2ccccc12)NC(=O)[C@H](CCC(N)=O)NC(=O)[C@@H](Cc1ccccc1)NC(=O)CN1CCC(NC(=O)CN2CCN(CC(=O)O)CCN(CC(=O)O)CCN(CC(=O)O)CC2)CC1)C(C)C [[^177Lu]Lu-TacsBOMB5, metal not drawn]
0.25

Quick check: tissue uptake at 24 h of CC(C)C[C@H](NC(=O)[C@H](Cc1cnc[nH]1)N(C)C(=O)CNC(=O)[C@@H](NC(=O)[C@H](C)NC(=O)[C@H](Cc1c[nH]c2ccccc12)NC(=O)[C@H](CCC(N)=O)NC(=O)[C@@H](Cc1ccccc1)NC(=O)CN1CCC(NC(=O)CN2CCN(CC(=O)O)CCN(CC(=O)O)CCN(CC(=O)O)CC2)CC1)C(C)(C)C)C(=O)N1CSC[C@H]1C(N)=O [[^177Lu]Lu-LW01110, metal not drawn] ?
0.07

Quick check: tissue uptake at 24 h of CC(C)C[C@H](NC(=O)[C@H](Cc1cnc[nH]1)N(C)C(=O)CNC(=O)[C@@H](NC(=O)[C@H](C)NC(=O)[C@H](Cc1c[nH]c2ccccc12)NC(=O)[C@H](Cc1c[nH]cn1)NC(=O)[C@@H](Cc1ccccc1)NC(=O)CN1CCC(NC(=O)CN2CCN(CC(=O)O)CCN(CC(=O)O)CCN(CC(=O)O)CC2)CC1)C(C)(C)C)C(=O)N1CSC[C@H]1C(N)=O [[^177Lu]Lu-LW01142, metal not drawn] ({DOTA}-[X1][dF]HWA[Tle]G[NMeH]L[Thz]-NH2) ?
0.16

----------
assay: Ex vivo biodistribution in PC-3 tumor-bearing mice; conditions: mouse, in vivo, Uptake in testes, 72 h post-injection
observedProperty: tissue uptake at 72 h (%ID/g)
The reply should contain only the number, in %ID/g.

Quick check: tissue uptake at 72 h of CC(C)C[C@@H](CN1CSC[C@H]1C(N)=O)NC(=O)[C@H](Cc1cnc[nH]1)NC(=O)CN(C)C(=O)[C@@H](NC(=O)[C@H](C)NC(=O)[C@H](Cc1c[nH]c2ccccc12)NC(=O)[C@H](CCC(N)=O)NC(=O)[C@@H](Cc1ccccc1)NC(=O)CN1CCC(NC(=O)CN2CCN(CC(=O)O)CCN(CC(=O)O)CCN(CC(=O)O)CC2)CC1)C(C)C [[^177Lu]Lu-TacsBOMB5, metal not drawn] ?
0.08

----------
test: Ex vivo biodistribution in PC-3 tumor-bearing mice; conditions: mouse, stomach, Uptake in stomach, 1 h post-injection
Numbered stars: 1 amine (or outer) side, 2 acyl side, 3 side chain; on linkers, the order of the positions; unused ones are H or OH. Square brackets hold non-standard residues; d marks the D form. Peptide text beside a SMILES is read from it. * marks the point of attachment. DOTA = O=C(O)CN1CCN(CC(=O)O)CCN(CC(=O)*)CCN(CC(=O)O)CC1; NMeH = CN[C@@H](Cc1c[nH]cn1)C(=O)O; X1 = O=C(CN1CCC(N[*:1])CC1)[*:2]; Tle = CC(C)(C)[C@H](N)C(=O)O; Thz = O=C(O)[C@@H]1CSCN1
observedProperty: tissue uptake at 1 h (%ID/g)
The reply should contain only the number, in %ID/g.

CC(C)C[C@H](NC(=O)[C@H](Cc1cnc[nH]1)N(C)C(=O)CNC(=O)[C@@H](NC(=O)[C@H](C)NC(=O)[C@H](Cc1c[nH]c2ccccc12)NC(=O)[C@H](Cc1c[nH]cn1)NC(=O)[C@@H](Cc1ccccc1)NC(=O)CN1CCC(NC(=O)CN2CCN(CC(=O)O)CCN(CC(=O)O)CCN(CC(=O)O)CC2)CC1)C(C)(C)C)C(=O)N1CSC[C@H]1C(N)=O [[^177Lu]Lu-LW01142, metal not drawn] ({DOTA}-[X1][dF]HWA[Tle]G[NMeH]L[Thz]-NH2)
0.6

Quick check: tissue uptake at 1 h of CC(C)C[C@H](NC(=O)[C@H](Cc1cnc[nH]1)N(C)C(=O)CNC(=O)[C@@H](NC(=O)[C@H](C)NC(=O)[C@H](Cc1c[nH]c2ccccc12)NC(=O)[C@H](CCC(N)=O)NC(=O)[C@@H](Cc1ccccc1)NC(=O)CN1CCC(NC(=O)CN2CCN(CC(=O)O)CCN(CC(=O)O)CCN(CC(=O)O)CC2)CC1)C(C)(C)C)C(=O)N1CSC[C@H]1C(N)=O [[^177Lu]Lu-LW01110, metal not drawn] ?
0.99

----------
test: Ex vivo biodistribution in PC-3 tumor-bearing mice; conditions: mouse, small intestine, Uptake in small intestine, 120 h post-injection
Numbered stars: 1 amine (or outer) side, 2 acyl side, 3 side chain; on linkers, the order of the positions; unused ones are H or OH. Square brackets hold non-standard residues; d marks the D form. Peptide text beside a SMILES is read from it. * marks the point of attachment. DOTA = O=C(O)CN1CCN(CC(=O)O)CCN(CC(=O)*)CCN(CC(=O)O)CC1; NMeH = CN[C@@H](Cc1c[nH]cn1)C(=O)O; X1 = O=C(CN1CCC(N[*:1])CC1)[*:2]; Tle = CC(C)(C)[C@H](N)C(=O)O; Thz = O=C(O)[C@@H]1CSCN1
Let's look at some molecules and their measured tissue uptake at 120 h.
The reply should contain only the number, in %ID/g.

Quick check: tissue uptake at 120 h of CC(C)C[C@@H](CN1CSC[C@H]1C(N)=O)NC(=O)[C@H](Cc1cnc[nH]1)NC(=O)CN(C)C(=O)[C@@H](NC(=O)[C@H](C)NC(=O)[C@H](Cc1c[nH]c2ccccc12)NC(=O)[C@H](CCC(N)=O)NC(=O)[C@@H](Cc1ccccc1)NC(=O)CN1CCC(NC(=O)CN2CCN(CC(=O)O)CCN(CC(=O)O)CCN(CC(=O)O)CC2)CC1)C(C)C [[^177Lu]Lu-TacsBOMB5, metal not drawn] ?
0.02

Quick check: tissue uptake at 120 h of CC(C)C[C@H](NC(=O)[C@H](Cc1cnc[nH]1)N(C)C(=O)CNC(=O)[C@@H](NC(=O)[C@H](C)NC(=O)[C@H](Cc1c[nH]c2ccccc12)NC(=O)[C@H](Cc1c[nH]cn1)NC(=O)[C@@H](Cc1ccccc1)NC(=O)CN1CCC(NC(=O)CN2CCN(CC(=O)O)CCN(CC(=O)O)CCN(CC(=O)O)CC2)CC1)C(C)(C)C)C(=O)N1CSC[C@H]1C(N)=O [[^177Lu]Lu-LW01142, metal not drawn] ({DOTA}-[X1][dF]HWA[Tle]G[NMeH]L[Thz]-NH2) ?
0.02

----------
assay: Ex vivo biodistribution in PC-3 tumor-bearing mice; conditions: mouse, liver, Uptake in liver, 120 h post-injection
Numbered stars: 1 amine (or outer) side, 2 acyl side, 3 side chain; on linkers, the order of the positions; unused ones are H or OH. Square brackets hold non-standard residues; d marks the D form. Peptide text beside a SMILES is read from it. * marks the point of attachment. DOTA = O=C(O)CN1CCN(CC(=O)O)CCN(CC(=O)*)CCN(CC(=O)O)CC1; NMeH = CN[C@@H](Cc1c[nH]cn1)C(=O)O; X1 = O=C(CN1CCC(N[*:1])CC1)[*:2]; Tle = CC(C)(C)[C@H](N)C(=O)O; Thz = O=C(O)[C@@H]1CSCN1
observedProperty: tissue uptake at 120 h (%ID/g)
The reply should contain only the number, in %ID/g.

Worked examples, 2 molecules total:
CC(C)C[C@H](NC(=O)[C@H](Cc1cnc[nH]1)N(C)C(=O)CNC(=O)[C@@H](NC(=O)[C@H](C)NC(=O)[C@H](Cc1c[nH]c2ccccc12)NC(=O)[C@H](CCC(N)=O)NC(=O)[C@@H](Cc1ccccc1)NC(=O)CN1CCC(NC(=O)CN2CCN(CC(=O)O)CCN(CC(=O)O)CCN(CC(=O)O)CC2)CC1)C(C)(C)C)C(=O)N1CSC[C@H]1C(N)=O [[^177Lu]Lu-LW01110, metal not drawn]
0.04
CC(C)C[C@H](NC(=O)[C@H](Cc1cnc[nH]1)N(C)C(=O)CNC(=O)[C@@H](NC(=O)[C@H](C)NC(=O)[C@H](Cc1c[nH]c2ccccc12)NC(=O)[C@H](Cc1c[nH]cn1)NC(=O)[C@@H](Cc1ccccc1)NC(=O)CN1CCC(NC(=O)CN2CCN(CC(=O)O)CCN(CC(=O)O)CCN(CC(=O)O)CC2)CC1)C(C)(C)C)C(=O)N1CSC[C@H]1C(N)=O [[^177Lu]Lu-LW01142, metal not drawn] ({DOTA}-[X1][dF]HWA[Tle]G[NMeH]L[Thz]-NH2)
0.08

Lab note: next molecule to report on.
Quick check: tissue uptake at 120 h of CC(C)C[C@@H](CN1CSC[C@H]1C(N)=O)NC(=O)[C@H](Cc1cnc[nH]1)NC(=O)CN(C)C(=O)[C@@H](NC(=O)[C@H](C)NC(=O)[C@H](Cc1c[nH]c2ccccc12)NC(=O)[C@H](CCC(N)=O)NC(=O)[C@@H](Cc1ccccc1)NC(=O)CN1CCC(NC(=O)CN2CCN(CC(=O)O)CCN(CC(=O)O)CCN(CC(=O)O)CC2)CC1)C(C)C [[^177Lu]Lu-TacsBOMB5, metal not drawn] ?
0.16
